The measurements presented in this section are drawn from ChEMBL document CHEMBL3885881.

- Organism: Rattus norvegicus
- measurement.description: DrugMatrix - Regimen: Daily Repeat
- Type: toxicity, organism-based, Sprague-Dawley
- Set-up: regimen Daily Repeat, gender Male, age 6-8 weeks
- assay.conditions: in vivo, po, 89 mg/kg, 72 h, tissue Blood, route oral GAVAGE, dose level High, time 3 day, vehicle .5 % CMC
measurement.kind: ABSOLUTE BASOPHIL (cells/µL)
Just the number in cells/µL, nothing appended.

Can you share its ABSOLUTE BASOPHIL? I mean this compound: CC(C(=O)O)c1ccc2oc(-c3ccc(Cl)cc3)nc2c1 (stereo unspecified)
46.7

====

- Species on record: Rattus norvegicus
- measurement.description: DrugMatrix - Regimen: Daily Repeat
- Format: toxicity, organism-based, Sprague-Dawley
- Parameters: regimen Daily Repeat, gender Male, age 6-8 weeks
- assay.conditions: in vivo, po, 10 mg/kg, 120 h, tissue Blood, route oral GAVAGE, dose level Low, time 5 day, vehicle .5 % CMC
HEMATOCRIT overview

[[record]]
compound = "O=C1CN=C(c2ccccc2Cl)c2cc([N+](=O)[O-])ccc2N1"
experimental_result = "35.3%"

[[record]]
compound = "O=C1C(CC[S+]([O-])c2ccccc2)C(=O)N(c2ccccc2)N1c1ccccc1 (centres undefined)"
experimental_result = "33.27%"

[[record]]
compound = "Fc1ccc(C(c2ccc(F)cc2)N2CCN(C/C=C/c3ccccc3)CC2)cc1"
experimental_result = "36.03%"


Query compound follows.
Can you share its HEMATOCRIT? I mean this compound: CNCCC(Oc1ccc(C(F)(F)F)cc1)c1ccccc1 (centres undefined)
39.33%
